- SYSTEM_UNDER_TEST: T1, human neonatal Fc receptor (hFcRn) (human, UniProt P55899 24-290; P61769 21-119)
- T1 construct: Biotinylated in the ELISA, Octet and yeast assays; also called human FcRn; huFcRn
- PROTOCOL: phage ELISA pH 6;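 further: higher score means stronger binding and above about 3 to 5 exceeds background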
// ELISA score lookup, one value per entry
API note: the answer field is a bare number with no unit suffix.

Recorded results for 2 binders are shown here.
{"BINDER": "L5 isolate with insertion SEQ ID NO: 404 (other) EPKSCDKTHTCPPCPAPELLGGPSVFLFPPKPKDTLMISRTPEVTCVVVDVSHEDPEVKFNWYVDGVEVHNAKTKPREEQYNSTYRVVSVLTVLHQDWLNGKEYKCKVSNKALPAPIEKTISKAKGQPREPQVYTLPPSRDELTKNQVSLTCLVKGFYPSDIAVEWESNGGCMMEFAQCGGGQPENNYKTTPPVLDSDGSFFLYSKLTVDKSRWQQGNVFSCSVMHEALHNHYTQKSLSLSPGK", "ELISA score": 74.2}
{"BINDER": "L5 isolate with insertion SEQ ID NO: 414 (other) EPKSCDKTHTCPPCPAPELLGGPSVFLFPPKPKDTLMISRTPEVTCVVVDVSHEDPEVKFNWYVDGVEVHNAKTKPREEQYNSTYRVVSVLTVLHQDWLNGKEYKCKVSNKALPAPIEKTISKAKGQPREPQVYTLPPSRDELTKNQVSLTCLVKGFYPSDIAVEWESNGGCVNTWWSCGGGQPENNYKTTPPVLDSDGSFFLYSKLTVDKSRWQQGNVFSCSVMHEALHNHYTQKSLSLSPGK", "ELISA score": 65.2}

Query block: Give the value of ELISA score reported for the following: L5 isolate with insertion SEQ ID NO: 419 (other) EPKSCDKTHTCPPCPAPELLGGPSVFLFPPKPKDTLMISRTPEVTCVVVDVSHEDPEVKFNWYVDGVEVHNAKTKPREEQYNSTYRVVSVLTVLHQDWLNGKEYKCKVSNKALPAPIEKTISKAKGQPREPQVYTLPPSRDELTKNQVSLTCLVKGFYPSDIAVEWESNGGCQNRSYWCGGGQPENNYKTTPPVLDSDGSFFLYSKLTVDKSRWQQGNVFSCSVMHEALHNHYTQKSLSLSPGK
Result block: 61

Query block: Supply reported ELISA score belonging to this binder: variant Fc-fragment Fc-5-51 (other, soluble elsewhere) EPKSCDKTHTCPPCPAPELLGGPSVFLFPPKPKDTLMISRTPEVTCVVVDVSHEDPEVKFNWYVDGVEVHNAKTKPREEQYNSTYRVVSVLTVLHQDWLNGKEYKCKVSNKALPAPIEKTISKAKGQPREPQVYTLPPSRDELTKNQVSLTCLVKGFYPSDIAVEWESNGGCHLPFAVCGGGQPENNYKTTPPVLDSDGSFFLYSKLTVDKSRWQQGNVFSCSVMHEALHNHYTQKSLSLSPGK
Result block: 82.5

Query block: Name the recorded ELISA score of the binder listed here: L5 isolate with insertion SEQ ID NO: 487 (other) EPKSCDKTHTCPPCPAPELLGGPSVFLFPPKPKDTLMISRTPEVTCVVVDVSHEDPEVKFNWYVDGVEVHNAKTKPREEQYNSTYRVVSVLTVLHQDWLNGKEYKCKVSNKALPAPIEKTISKAKGQPREPQVYTLPPSRDELTKNQVSLTCLVKGFYPSDIAVEWESNGGCGIFESWCGGGQPENNYKTTPPVLDSDGSFFLYSKLTVDKSRWQQGNVFSCSVMHEALHNHYTQKSLSLSPGK
Result block: 26.3
